- SYSTEM_NAME: UniProtKB P08684
- EXPERIMENTAL_PARAMETERS: Potency

COMPOUND	AC50
CC(=O)Nc1ccc(C2C(C)CCC3C(=O)N4C(CCC(C)[C@@H]4c4ccc(NC(C)=O)cc4)C(=O)N32)cc1 (stereo partly drawn)	3.16 µM (inconclusive)
O=c1cc(-c2ccccc2)oc2c(O)c(O)ccc12 [7,8-DIHYDROXYFLAVONE]	39.8 µM (inconclusive)
CCCCNc1nc(C)nc2c1nc(-c1ccccc1)n2CCN(C)C	15.8 µM (inconclusive)
Cc1nc(N2CCOCC2)c2nc(-c3ccccc3)n(CCN3CCOCC3)c2n1	10 µM (inconclusive)
COc1cc(C(=O)OC2CC[C@]3(C)C4CCC5[C@]6(O)CC(O)[C@]7(O)C(CN8CC(C)CCC8[C@]7(C)O)[C@]6(O)C[C@@]53O[C@]24O)cc(OC)c1OC (stereo partly drawn)	20 µM (inconclusive)
CCCn1c(-c2ccc(F)cc2)nc2c(NC3CC4CCC(C3)N4C)nc(C)nc21 (stereo not drawn)	15.8 µM (inconclusive)
O=C1C=C(O)C(=O)c2ccccc21	25.1 µM (inconclusive)
O=C(/C=C/c1ccccc1)c1ccc(O)cc1O [2',4'-DIHYDROXYCHALCONE]	1.58 µM (inconclusive)

###

Listed here: compounds with reported AC50 for UniProt P08684.

COMPOUND	SYSTEM_NAME	AC50
CCN1CCCC1CNC(=O)C1c2cc(OC)c(OC)cc2C(=O)N(C)C1c1cccnc1 (centres undefined)	UniProt P08684	5.62 µM (inconclusive)
O=C(NCCc1ccccc1)C(=O)NCC1(c2ccccc2)CCCC1	UniProt P08684	3.16 µM (inconclusive)
CNC(=O)[C@H]1O[C@H](n2cnc3c(NCc4cccc(I)c4)ncnc32)[C@@H](O)[C@@H]1O	UniProt P08684	31.6 µM (inconclusive)
CCc1cc2c(nc1CC)CCN(CC/C(C)=N/OC)C2	UniProt P08684	3.16 µM (inconclusive)

###

- TEST_SUMMARY: non-specific 3'UTR reporter inhibition in Clone20-Shn3RL – cell-based, Renilla luciferase, cherry-picked, counter-screen for Shn3 inhibitor project, dose response (AID 624133)
- Assay type: functional
The source made the active and inactive calls.

MOLECULE	AC50
CCN(CC)S(=O)(=O)c1cc(NC(=O)CNc2cccc(S(=O)(=O)N3CCOCC3)c2)ccc1C	2.17 µM (active)
Cc1nn(-c2ccccc2)c(C)c1C(=O)OC(C)C(=O)NC1CCCCC1 (centres undefined)	25.8 µM (active)
O=C(Nc1nc(-c2ccccn2)cs1)C1COc2ccccc2O1 (centres undefined)	4.69 µM (active)
COc1ccc(OC)c(NC(=O)c2nc(S(=O)(=O)Cc3ccccc3)ncc2Cl)c1	3.79 µM (active)

###

- SYSTEM_NAME: High affinity choline transporter 1 (Homo sapiens, UniProt Q9GZV3)
- Sequence (Q9GZV3 whole entry): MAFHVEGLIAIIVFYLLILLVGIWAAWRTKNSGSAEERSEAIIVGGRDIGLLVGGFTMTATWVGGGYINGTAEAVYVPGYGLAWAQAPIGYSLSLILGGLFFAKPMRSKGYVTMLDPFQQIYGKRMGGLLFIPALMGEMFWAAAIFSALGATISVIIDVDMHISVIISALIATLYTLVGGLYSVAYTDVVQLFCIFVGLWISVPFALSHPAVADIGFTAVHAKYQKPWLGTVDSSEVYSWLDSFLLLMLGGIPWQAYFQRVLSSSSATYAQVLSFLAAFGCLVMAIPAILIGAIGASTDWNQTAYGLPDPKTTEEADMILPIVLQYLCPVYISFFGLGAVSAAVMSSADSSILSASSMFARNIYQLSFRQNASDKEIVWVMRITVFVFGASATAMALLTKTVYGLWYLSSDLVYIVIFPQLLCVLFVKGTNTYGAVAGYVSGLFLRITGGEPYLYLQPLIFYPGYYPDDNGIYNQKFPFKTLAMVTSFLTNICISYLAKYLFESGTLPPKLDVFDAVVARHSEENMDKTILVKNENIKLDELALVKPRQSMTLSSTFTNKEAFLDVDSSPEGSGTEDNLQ
- TEST_SUMMARY: human choline transporter blockers, potency – cell-based, 5-point CRC, membrane potential dye, dose response (AID 504840)
- Assay type: functional
Calls of active or inactive are those of the source.
The following compounds are shown together with reported IC50 values.
READOUT: IC50

COMPOUND	RECORDED_MEASUREMENT
CCNc1cc(Cl)nc(SC)n1	4.88 µM (active)
C/C=C(\C)CN1CCC(Oc2cccc(C(=O)NCc3ccccn3)c2)CC1	12.3 µM (active)
COc1ccc(C2CC(=O)Oc3c(C(CCN4CCCCC4)c4ccc(N(C)C)cc4)c(OC)cc(OC)c32)cc1 (configuration not stated)	14.5 µM (active)
CCOc1ccc(/C=C2\SC(=S)N(NC(=O)c3ccncc3)C2=O)cc1OC	15.1 µM (active)
NC(=O)CCCn1c(C(=O)c2cc(Cl)c(N)c(Cl)c2)c2ccc(C(F)(F)F)cc2[n+]1[O-]	4.47 µM (active)
CCOC(=O)Cc1csc(NS(=O)(=O)c2ccc3c4c(cccc24)C(=O)N3CC)n1	4.79 µM (active)
O=C(Nc1ccc(S(=O)(=O)N2CCOCC2)cc1)c1ccc(Cl)cc1Cl	13.8 µM (active)
CC1CCC(NC(=O)c2cccc(S(=O)(=O)NCc3ccccc3)c2)CC1 (configuration not stated)	4.07 µM (active)
O=C(Nc1ccccc1C(=O)NCCCN1CCOCC1)c1ccc(F)cc1	7.09 µM (active)
Cc1ccc2c(c1)N(CCCC(=O)NCC1COc3ccccc3O1)C(=O)CO2 (configuration not stated)	13.8 µM (active)
CNC(=O)[C@H]1O[C@@H](n2cnc3c(NCc4cccc(I)c4)ncnc32)[C@H](O)[C@@H]1O [IB-MECA]	2.37 µM (active)
O=C(/C=C/c1cn(-c2ccccc2)nc1-c1ccc2c(c1)OCCO2)NCCCN1CCOCC1	20 µM (active)
